Reference for the values: ChEMBL document CHEMBL1201862

system: SNB-19; test: NCI tumour cell line growth inhibition, 48 h
Activity calls are given as the source filed them. Rule as the data show it: active = GI50 up to about 1.1 µM and inactive = higher.
Classes used: t for active, f for inactive

# Compound, Label
rows = [
    ("COc1ccc2c3c1OC1C4(CCC5C(C2)N(CC2CC2)CCC351)OCCO4 (stereo unspecified)", "f"),
    ("O=C(CSCC(=O)N/N=C/c1cc(I)cc(I)c1O)N/N=C/c1cc(I)cc(I)c1O", "f"),
    ("Cc1cc(O)c(C(c2cccnc2)c2c(O)cc(C)[nH]c2=O)c(=O)[nH]1", "f"),
    ("O=C(/C=C/c1ccc(Cl)cc1)c1ccccc(=O)c1O", "f"),
    ("COC1CC(C)([N+](=O)[O-])C(O)C(C)O1 (stereo unspecified)", "f"),
    ("CC(c1ccc2c(c1)CCC1C2CC2OC23CC=CC(=O)[C@]13C)C1C[C@]2(C)O[C@]2(C)[C@H](O)O1 (stereo partly specified)", "f"),
    ("CC(C)=CC(=O)Cc1nc2ccc([N+](=O)[O-])cc2[nH]c1=O", "f"),
    ("O=C(/C=C/c1ccc(Cl)cc1)Oc1ccc(/C=C2\\CCCCC2=O)cc1", "f"),
    ("COc1ccc(C(C)c2cc3c(cc2O)OCO3)cc1 (stereo unspecified)", "f"),
    ("COc1cc(N(C)C)ccc1C=c1c2ccccc2n2c1cc(-c1ccccc1)[n+]2C", "t"),
    ("COc1ccc(/C=C2\\CCc3ccccc3C2=O)cc1OC", "f"),
]

* * *

tested on: M14; test: NCI tumour cell line growth inhibition, 48 h
Activity calls are given as the source filed them. No stated cut-off is given here; in the data, active = GI50 up to about 1.1 µM and inactive = higher.
Classes used: active, inactive

# Compound, Target or system, Label
data = [
    ("COC(=O)/C=C1/OC(c2ccc(Br)cc2)=C(Br)C1=O", "M14", "inactive"),
    ("CN(C)CCNC(=O)c1ccc(NCCCN(C)CCCNc2ccc(C(=O)NCCN(C)C)c3nc4ccccc4c(O)c23)c2c(O)c3ccccc3nc12", "M14", "active"),
    ("O=C(O)CN(c1ccccc1)S(=O)(=O)c1ccc(NC(=O)c2ccccc2)cc1", "M14", "inactive"),
    ("O=C(CCn1[nH]c(=O)c(Cl)c(Cl)c1=O)NNC(=O)C[n+]1ccccc1", "M14", "inactive"),
    ("O=c1[nH]c(-c2ccccc2)nc2cc(Cl)ccc12", "M14", "inactive"),
    ("C=CC1(CC)/C(=N\\O)C(CC)(CC)C(=O)N1O (stereo not given)", "M14", "inactive"),
    ("CC(Oc1ccc2cc(C(=O)c3ccccc3)c(=O)oc2c1)C(=O)O (stereo not given)", "M14", "inactive"),
    ("N#Cc1ccc(/N=C(/NCC(=O)O)Nc2ccc3ccccc3c2)cc1", "M14", "inactive"),
    ("CCN(CC)CCCNC(=O)c1cc(-c2nccn2C)nc2ccccc12", "M14", "inactive"),
    ("Cc1cc2c(cc1C)[n+]([O-])c(N1CCN(c3ccc([N+](=O)[O-])cc3)CC1)c(C#N)[n+]2[O-]", "M14", "inactive"),
]

* * *

test system: UO-31; test: NCI tumour cell line growth inhibition, 48 h
Active and inactive are the calls of the source. Rule as the data show it: active = GI50 up to about 1.1 µM and inactive = higher.
Overview of recorded GI50 for various molecules

# Molecule, GI50
records = [
    ("CC(=O)O[C@H]1/C(=C/c2ccncc2)C[C@H]2[C@@H]3CC=C4C[C@@H](N5CCCC5)CC[C@]4(C)[C@H]3CC[C@]12C", "4.99 µM (inactive)"),
    ("CCCC(CC)c1c(O)c(O)c(C(CC)CCC)c(C(CC)CCC)c1C(CC)CCC (stereo not given)", "> 10 µM (inactive)"),
    ("O/N=C1\\C/C(=N\\O)c2c(Br)sc(Br)c21", "20.6 µM (inactive)"),
    ("Brc1ccc(-c2cc3c(cc2C2SCCS2)OCO3)cc1", "18.1 µM (inactive)"),
    ("CC(N)C(C)Cc1ccccc1 (stereo not given)", "> 100 µM (inactive)"),
]
